- EXPERIMENTAL_PROTOCOL: Dissociation constant, pKa of the compound
- Assay type: physicochemical
Reported pKa by item:
ATTRIBUTE_MEASURED: pKa

>>> endpoint_result("O=C(N1CCCC[C@@H]1Cc1ccccc1)n1cc(C(O)(c2ccc(F)cc2)c2ccc(F)cc2)nn1")
9.3
>>> endpoint_result("O=C(N1CCCC[C@@H]1Cc1ccccc1)n1ccc(C(O)(c2ccc(F)cc2)c2ccc(F)cc2)n1")
14.2
>>> endpoint_result("O=C(N1CCCC[C@@H]1Cc1ccccc1)n1ncc(C(O)(c2ccc(F)cc2)c2ccc(F)cc2)n1")
9.3
>>> endpoint_result("O=C(N1CCCC[C@@H]1Cc1ccccc1)n1cnc(C(O)(c2ccc(F)cc2)c2ccc(F)cc2)n1")
10
>>> endpoint_result("O=C(N1CCCC[C@@H]1Cc1ccccc1)n1cnc(C(O)(c2ccc(F)cc2)c2ccc(F)cc2)c1")
14.4
